Recorded measurements of protein stability index, one per entry
B1: KRT71 (parent)
chain: ELRNVQDVVEDYKKRYEEEINKRT

# Variants of: B1
# assay-details: protein stability index of a GFP-peptide fusion (GPS, HEK-293T) (PSI 1-6); higher = more stable;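 also: lentivirally expressed fusions sorted by FACS into six bins by GFP to DsRed ratio, PSI derived from sequencing read proportions per bin multiplied by bin number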
# settings: c terminus: a fixed tail appended
experimental-readout: protein stability index

sequence-change: E1Q
experimental-readout: protein stability index
test-value: 4.03
//
sequence-change: E1S
experimental-readout: protein stability index
test-value: 4.07
//
sequence-change: E18K
experimental-readout: protein stability index
test-value: 3.03
//
sequence-change: E1H
experimental-readout: protein stability index
test-value: 4.05
//
sequence-change: R23A
experimental-readout: protein stability index
test-value: 3.34
//
sequence-change: Q6T
experimental-readout: protein stability index
test-value: 3.4
//
sequence-change: D7C
experimental-readout: protein stability index
test-value: 3.35
//
sequence-change: D7F
experimental-readout: protein stability index
test-value: 3.28
//
sequence-change: R15E
experimental-readout: protein stability index
test-value: 3.49
//
sequence-change: V5I
experimental-readout: protein stability index
test-value: 3.88
//
sequence-change: D11F
experimental-readout: protein stability index
test-value: 3.01
//
sequence-change: N21S
experimental-readout: protein stability index
test-value: 4.27
//
sequence-change: D11H
experimental-readout: protein stability index
test-value: 3.77
//
sequence-change: N4W
experimental-readout: protein stability index
test-value: 3.17
//
sequence-change: E19H
experimental-readout: protein stability index
test-value: 3.73
//
sequence-change: I20L
experimental-readout: protein stability index
test-value: 4.32
//
sequence-change: V8M
experimental-readout: protein stability index
test-value: 3.23
//
sequence-change: N21M
experimental-readout: protein stability index
test-value: 2.79
//
sequence-change: E17G
experimental-readout: protein stability index
test-value: 3.1
//
sequence-change: Y16M
experimental-readout: protein stability index
test-value: 4.22
//
sequence-change: V9T
experimental-readout: protein stability index
test-value: 3.73
//
sequence-change: V8K
experimental-readout: protein stability index
test-value: 3.43
